The origin of these recorded values is ChEMBL document CHEMBL1961873.

# TARGET_OR_TEST_SYSTEM: Serine/threonine-protein kinase BRSK1 (Homo sapiens) (UniProt Q8TDC3)
# Sequence (Q8TDC3 whole entry): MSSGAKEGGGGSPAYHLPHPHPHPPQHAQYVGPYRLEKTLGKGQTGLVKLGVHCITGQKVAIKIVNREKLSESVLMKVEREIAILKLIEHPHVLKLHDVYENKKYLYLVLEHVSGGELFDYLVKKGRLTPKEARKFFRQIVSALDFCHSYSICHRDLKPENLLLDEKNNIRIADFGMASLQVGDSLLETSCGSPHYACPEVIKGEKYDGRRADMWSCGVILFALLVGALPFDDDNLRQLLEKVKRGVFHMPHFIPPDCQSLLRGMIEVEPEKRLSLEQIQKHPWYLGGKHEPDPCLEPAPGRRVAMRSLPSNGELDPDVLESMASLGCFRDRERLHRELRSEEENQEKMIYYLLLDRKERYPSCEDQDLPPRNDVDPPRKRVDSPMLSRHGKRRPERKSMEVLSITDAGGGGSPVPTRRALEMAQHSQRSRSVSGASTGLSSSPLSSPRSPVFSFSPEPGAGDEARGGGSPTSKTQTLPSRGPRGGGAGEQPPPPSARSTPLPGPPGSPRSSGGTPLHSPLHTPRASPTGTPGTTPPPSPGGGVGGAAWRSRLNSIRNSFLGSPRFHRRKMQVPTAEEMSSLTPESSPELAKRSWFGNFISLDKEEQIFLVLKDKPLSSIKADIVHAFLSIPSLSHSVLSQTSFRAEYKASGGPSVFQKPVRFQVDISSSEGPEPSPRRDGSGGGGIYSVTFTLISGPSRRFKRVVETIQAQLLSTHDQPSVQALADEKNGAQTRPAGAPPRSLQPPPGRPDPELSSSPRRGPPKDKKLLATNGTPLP
# TEST_CONDITIONS: at 0.1 µM
# Description: GSK_PKIS: BRSK1 mean inhibition at 0.1 uM [Nanosyn]
READOUT_LABEL: inhibition (%)

INSERT INTO assay_data (molecule, target_or_test_system, readout_label, result) VALUES
  ('NS(=O)(=O)c1ccc(N/N=C2\C(=O)Nc3ccc(Cl)cc32)cc1', 'Serine/threonine-protein kinase BRSK1 (Homo sapiens) (UniProt Q8TDC3)', 'inhibition', 0.76),
  ('O=C1Nc2ccc(-c3cccnc3)cc2C1=Cc1cc(Br)c(O)c(Br)c1', 'Serine/threonine-protein kinase BRSK1 (Homo sapiens) (UniProt Q8TDC3)', 'inhibition', 2.51),
  ('Cc1cc(O)cc(C)c1/C=C/c1cncc(C(=O)N(C)C)c1', 'Serine/threonine-protein kinase BRSK1 (Homo sapiens) (UniProt Q8TDC3)', 'inhibition', 2.98),
  ('CCCN1CCCC(c2ccc(Nc3nc(Nc4cc(F)ccc4C(N)=O)c4cc[nH]c4n3)c(OC)c2)C1 (stereo not given)', 'Serine/threonine-protein kinase BRSK1 (Homo sapiens) (UniProt Q8TDC3)', 'inhibition', 2.61),
  ('COC(=O)c1cncc(/C=C/c2c(C)cc(O)cc2C)c1', 'Serine/threonine-protein kinase BRSK1 (Homo sapiens) (UniProt Q8TDC3)', 'inhibition', -1.29),
  ('Cc1cc(Cl)cc2c1NC(=O)C2=NNc1ccc(S(N)(=O)=O)cc1', 'Serine/threonine-protein kinase BRSK1 (Homo sapiens) (UniProt Q8TDC3)', 'inhibition', -1.42),
  ('COc1cc(/C=N/Nc2ncnc3c2cnn3C(C)C)ccc1O', 'Serine/threonine-protein kinase BRSK1 (Homo sapiens) (UniProt Q8TDC3)', 'inhibition', 1.45),
  ('C[C@@H](Oc1cc(-n2cnc3ccc(OCC4CCN(C)CC4)cc32)sc1C(N)=O)c1ccccc1C(F)(F)F', 'Serine/threonine-protein kinase BRSK1 (Homo sapiens) (UniProt Q8TDC3)', 'inhibition', 22.4),
  ('c1ccc(Nc2ncc(-c3ccccc3)o2)cc1', 'Serine/threonine-protein kinase BRSK1 (Homo sapiens) (UniProt Q8TDC3)', 'inhibition', 0.5),
  ('O=C(Nc1ccc(Oc2ccc3[nH]c(NC(=O)c4ccco4)nc3c2)cc1)Nc1cc(C(F)(F)F)ccc1F', 'Serine/threonine-protein kinase BRSK1 (Homo sapiens) (UniProt Q8TDC3)', 'inhibition', 0.62),
  ('CS(=O)(=O)Nc1cccc(-c2ccc3c(NC(=O)C4CC4)n[nH]c3c2)c1', 'Serine/threonine-protein kinase BRSK1 (Homo sapiens) (UniProt Q8TDC3)', 'inhibition', 3.46),
  ('ON=C1CCc2cc(-c3nc(C4CCNCC4)[nH]c3-c3ccncc3)ccc21', 'Serine/threonine-protein kinase BRSK1 (Homo sapiens) (UniProt Q8TDC3)', 'inhibition', 1.34),
  ('NS(=O)(=O)c1cccc(Nc2cc(-c3ccc(F)cc3)n[nH]2)c1', 'Serine/threonine-protein kinase BRSK1 (Homo sapiens) (UniProt Q8TDC3)', 'inhibition', 1.36),
  ('COc1cc2ncnc(Nc3ccc4c(cnn4Cc4ccccc4)c3)c2cc1OC', 'Serine/threonine-protein kinase BRSK1 (Homo sapiens) (UniProt Q8TDC3)', 'inhibition', 1.23),
  ('COc1cc(Nc2nccc(-c3cnn4ncccc34)n2)cc(OC)c1', 'Serine/threonine-protein kinase BRSK1 (Homo sapiens) (UniProt Q8TDC3)', 'inhibition', 1.03),
  ('CS(=O)(=O)CCNCc1nc(-c2ccc3ncnc(Nc4ccc(OCc5cccc(C(F)(F)F)c5)cc4)c3c2)cs1', 'Serine/threonine-protein kinase BRSK1 (Homo sapiens) (UniProt Q8TDC3)', 'inhibition', 2.31),
  ('O=S(=O)(CCOCc1ccc(-c2ccc3ncnc(Nc4ccc(OCc5cccc(F)c5)c(Cl)c4)c3c2)o1)c1ccccc1', 'Serine/threonine-protein kinase BRSK1 (Homo sapiens) (UniProt Q8TDC3)', 'inhibition', -0.74),
  ('Cc1cc(-c2ccccn2)cc(C)c1/C=C/c1cncc(-c2nn[nH]n2)c1', 'Serine/threonine-protein kinase BRSK1 (Homo sapiens) (UniProt Q8TDC3)', 'inhibition', 2.2),
  ('CN(c1ccc(NC(=O)Nc2ccc(OC(F)(F)F)cc2)cc1)c1ccnc(Nc2cccc(S(N)(=O)=O)c2)n1', 'Serine/threonine-protein kinase BRSK1 (Homo sapiens) (UniProt Q8TDC3)', 'inhibition', 1.53),
  ('Oc1cccc(-c2nc(-c3ccccc3)[nH]c2-c2ccncc2)c1', 'Serine/threonine-protein kinase BRSK1 (Homo sapiens) (UniProt Q8TDC3)', 'inhibition', -0.48);
